System: NCI-H226 lung
TEST_DESCRIPTION: NCI tumour cell line growth inhibition, 48 h
MEASURED_ENDPOINT: TGI (µM)
Give the value in µM but do not write µM after it.

May I ask what TGI has been recorded for CCC1OC(=O)CC(O)C(C)C(OC2OC(C)CC(N(C)C)C2O)C(CC=O)CC(C)C(=O)/C=C/C2(C)OC2C1C (stereo not given) ?
49.6

Which TGI is listed for `Cc1cc2nc(CC(C(F)(F)F)C(F)(F)F)oc2cc1C` ?
4.81

###

Reported TGI values follow for various compounds
Test system: MALME-3M melanoma
TEST_DESCRIPTION: NCI tumour cell line growth inhibition, 48 h

{"columns": ["COMPOUND", "EXPERIMENTAL_SYSTEM", "TGI"],
 "data": [
  ["NCCN(CCN)/[N+]([O-])=N/O", "MALME-3M melanoma", "> 100 µM"]
]}

Form field: TGI recorded for O=C1C=CC(=O)[C@H]2C3C=CC(C4C3C3(Cl)C(Cl)=C(Cl)[C@]4(Cl)C3(Cl)Cl)[C@@H]12 (stereo not given in full) with MALME-3M melanoma (enter value)
22.6 µM

API: value(readout=TGI, system=MALME-3M melanoma) for record `Cc1cc2c(cc1-c1cc3c(cc1C)C(C(C)C)=C(O)C(=O)/C3=C\Nc1ccccn1)/C(=C/Nc1ccccn1)C(=O)C(O)=C2C(C)C`
67.6 µM

Observed TGI on MALME-3M melanoma for `CCCCc1c2c(nc3c1CCCC3=O)CCCC2` , please.
98.4 µM

Query for MALME-3M melanoma: what TGI does the record show for `Cc1cc2nc(CC(C(F)(F)F)C(F)(F)F)oc2cc1C` ?
9.32 µM

Could you share what TGI was measured for CC1(C)OC2[C@@H](CO[C@@]3([C@H]4OC(C)(C)O[C@@H]4CO)OC(C)(C)O[C@@H]23)O1 (stereo not given in full) , tested on MALME-3M melanoma?
> 100 µM

###

Quick list: TGI per entry.
Test system: MCF7 breast
TEST_DESCRIPTION: NCI tumour cell line growth inhibition, 48 h

{"columns": ["COMPOUND", "RESULT"],
 "data": [
  ["COc1cc2nc3n(c(=O)c2cc1OC)CCCCC3", "> 100 µM"],
  ["CN1CCN(Cn2nc(-c3cc(F)c(Cl)cc3Cl)oc2=S)CC1", "> 100 µM"],
  ["CCOC(=O)[C@H](CO)Nc1c(O)c2c(c(O)c1Cl)C(=O)C=CC2=O", "> 10 µM"]
]}

Record lookup: for MCF7 breast, what TGI belongs to `Cc1ccc(S(=O)(=O)NCCCSCCO)cc1` ?
> 100 µM

Checklist item: TGI tested on MCF7 breast, entry O=C1C=CC(=O)[C@H]2C3C=CC(C4C3C3(Cl)C(Cl)=C(Cl)[C@]4(Cl)C3(Cl)Cl)[C@@H]12 (stereo partly drawn) , value?
13.4 µM

Look up TGI with MCF7 breast for this compound: COc1ccc2c(c1)CC1N(C)CCC13CCCCC23 (stereo not drawn)
> 100 µM

MCF7 breast / TGI / `CCOC(=O)Nc1cc(-c2ccc(C)c(NS(C)(=O)=O)c2)nn2c(C)nnc12` : value?
> 100 µM

Test system MCF7 breast; read-out TGI; what value for NC(CS)C(=O)NCCNc1ccc(NCCNC(=O)C(N)CS)c2c1C(=O)c1c(O)ccc(O)c1C2=O (stereo not drawn) ?
1.21 µM

Requested read-out TGI, target or system MCF7 breast, entry CCC1OC2C(CC=C(C)C)=C3OC(C)(O)C(C)(CC)C(=O)C3=C3OC(=O)C=C1C32 (stereo not drawn)
> 100 µM

Please state recorded TGI (tested on MCF7 breast) of `COc1cc2oc(-c3ccc(O)cc3)cc(=O)c2c(OC)c1O`
> 100 µM

Recall the recorded TGI for `COc1cc(C(=O)N(C(=O)N2CCCCC2)c2ccccc2)cc(OC)c1OC` with MCF7 breast and state it.
> 100 µM

For the record `Nc1nc(-c2ccc3ccccc3c2)cc(-c2cc(-c3ccc4ccccc4c3)nc(N)n2)n1` , what value of TGI is listed for MCF7 breast?
> 100 µM

Write down the reported TGI of `CNC(=O)c1cc(Oc2cccc3nc(NC(=O)Nc4ccc(F)cc4F)ccc23)ccn1` , test system: MCF7 breast.
> 50 µM

Recorded TGI for `CCN(CCN(CC)C(=O)NC)C(=O)NC` with MCF7 breast, please?
> 100 µM

Which TGI is reported with MCF7 breast for this entry: `COc1cccc(/C=N/NC(=O)CN(C)C)c1O` ?
> 100 µM

Find TGI (MCF7 breast) for the entry `COc1c(C)c(C/C=C(\C)CCCCO)c(OC)c2ccccc12`
> 100 µM

Value wanted: TGI (MCF7 breast) of entry COC(=O)C1CCCN1C(=O)OC(C)(C)C (stereo not drawn)
> 100 µM

# returns recorded TGI (system: MCF7 breast) for `c1ccc(Sc2nc(Sc3ccccc3)nc(Sc3ccccc3)n2)cc1`
> 100 µM

###

System: XF 498 CNS
TEST_DESCRIPTION: NCI tumour cell line growth inhibition, 48 h
MEASURED_ENDPOINT: TGI

Examples with their reported TGI follow.
{"columns": ["COMPOUND", "RESULT"],
 "data": [
  ["CC(C)OC(=O)c1cccnc1/C=N/O", "> 100 µM"],
  ["CN(CC1NCCCC1O)C12CC3CC(CC(C3)C1)C2 (stereo not given)", "> 100 µM"],
  ["O=C1NC(Cc2ccccc2)C(=O)N2CCCC12 (stereo not given)", "> 100 µM"]
]}

Please report the recorded TGI for `C/C(CC(=O)Nc1cccc(C)c1C)=N\NC(N)=S` .
> 100 µM

Suppose we examine the compound `O=C(O)CCCc1cc2c(s1)-c1cccc3cccc-2c13` ; what TGI value has been reported?
> 100 µM

Item `Cc1cc(C)c(C2=NO[C@@H]3C(=O)N(c4ccc(Cc5ccc(N6C(=O)[C@H]7C(c8c(C)cc(C)cc8C)=NO[C@H]7C6=O)cc5)cc4)C(=O)[C@H]23)c(C)c1` has what recorded TGI?
> 100 µM

Requested read-out: TGI. Entry: `COc1cc(=O)oc(/C=C/CO)c1C`
> 100 µM

###

Test system: MOLT-4 leukemia
TEST_DESCRIPTION: NCI tumour cell line growth inhibition, 48 h
molecules and their reported TGI

Solved entries (count: 4):
{"columns": ["MOLECULE", "RESULT"],
 "data": [
  ["Clc1ccc(Nc2ncnc3c2sc2ncccc23)c(Cl)c1", "> 100 µM"],
  ["CN(C)CCCN=c1c2ccccc2n(C)c2[nH]c(=O)n(C)c(=O)c12", "12.1 µM"],
  ["COc1cc(CC2C(=O)OCC2[C@@H](OC(C)=O)c2ccc3c(c2)OCO3)c(Br)c(OC)c1OC (stereo not given in full)", "> 100 µM"],
  ["O=c1[nH]c(-c2ccc([N+](=O)[O-])cc2)nc2ccc(Cl)cc12", "> 100 µM"]
]}

Could you now look at the following molecule, please?
Requested read-out: TGI. Entry: `O=[N+]([O-])c1ccc2c(N=Nc3ccc4ccccc4c3O)c(O)cc(S(=O)(=O)O)c2c1`
> 51 µM

###

Tested on: UO-31 renal
TEST_DESCRIPTION: NCI tumour cell line growth inhibition, 48 h
MEASURED_ENDPOINT: TGI

{"columns": ["MOLECULE", "EXPERIMENTAL_SYSTEM", "TGI"],
 "data": [
  ["N#CCN1CCCN(CC#N)CCN(CC#N)CCCN(CC#N)CC1", "UO-31 renal", "> 100 µM"],
  ["COc1cc(/C=C/C2=NN(c3cccc(S(=O)(=O)O)c3)C3(C2)SCC(=O)N3c2nc3ccccc3s2)cc(OC)c1OC (stereo not given)", "UO-31 renal", "> 100 µM"],
  ["CC(=O)Nc1ccc(Cc2ccc3[nH]c(=O)cc(C)c3c2)cc1", "UO-31 renal", "> 100 µM"],
  ["COC(=O)C1=Cc2cn(S(=O)(=O)c3ccc(C)cc3)c3cccc(c23)C(C=C(C)C)N1C(C)=O (stereo not given)", "UO-31 renal", "> 100 µM"],
  ["O=C1NC2OC(CO)C(O)C(O)C2O1 (stereo not given)", "UO-31 renal", "> 100 µM"]
]}

Which TGI is listed for C=C(C)C1CCC2(C(=O)O)CCC3(C)C(CCC4C5(C)CCC(O)C(C)(C)C5CCC43C)C12 (stereo not given) ?
24.5 µM

Returns the measured TGI for the input molecule. Input: `CSCC(COC(C)=O)(CSC)c1ccncc1`
> 100 µM

Look up TGI: `O=C1C(=O)N(C23CC4CC(CC(C4)C2)C3)C(=S)N1c1ccccc1`
> 100 µM

Field request: TGI | item: `COc1c(OC)c(OC)c(-c2cc(=O)c3c(OC)c(OC)c(OC)c(OC)c3o2)c(OC)c1OC`
> 100 µM

// lookup TGI for C[C@H]1CCC2C(CN3CCCCC3)C(=O)OC2[C@]2(C)C(=O)CC(N3CCCCC3)C12O (stereo not given in full)
27.9 µM
